pKd: −log10 of the molar value.
Entries with their measured pKd, system EGFR WT (amino acids 669-1011) (Homo sapiens, UniProt P00533):

Examples from the recorded data:
Give reported pKd for C=C(COc1cc(Cl)cc(NC(=O)NCc2ccc3c(c2)CN(C2CCC(=O)NC2=O)C3=O)c1)C(=O)Nc1cc(Nc2nccc(-c3cn(C)c4ccccc34)n2)c(OC)cc1N(C)CCN(C)C (centres unmarked) (EGFR WT (amino acids 669-1011) (Homo sapiens, UniProt P00533))
> 7.30

Give reported pKd for C=C(COC(=O)N1CCN(c2nc(NCc3nc4cc(C)ccc4[nH]3)n3ncc(Br)c3n2)CC1)C(=O)N[C@@H]1CN(c2nc(Nc3cn(C)nc3OC)c3ncn(C)c3n2)C[C@H]1F (EGFR WT (amino acids 669-1011) (Homo sapiens, UniProt P00533))
6.30 to 7.30

Give reported pKd for C=C(COc1c(Cl)cccc1NC(=O)NCc1ccc2c(c1)CN(C1CCC(=O)NC1=O)C2=O)C(=O)Nc1cc(Nc2nccc(-c3cn(C)c4ccccc34)n2)c(OC)cc1N(C)CCN(C)C (centres unmarked) (EGFR WT (amino acids 669-1011) (Homo sapiens, UniProt P00533))
6.30 to 7.30

Give reported pKd for C=C(CN(C(=O)NCc1ccc2c(c1)CN(C1CCC(=O)NC1=O)C2=O)c1ccc(C)c(Cl)c1)C(=O)N[C@@H]1CN(c2nc(Nc3cn(C)nc3OC)c3ncn(C)c3n2)C[C@H]1F (some centres unmarked) (EGFR WT (amino acids 669-1011) (Homo sapiens, UniProt P00533))
< 5.60

Others:
Give reported pKd for C=C(COc1cc(-c2ccccn2)ccc1CNc1nc(N[C@H](CC)CO)nc2c1ncn2C(C)C)C(=O)N[C@@H]1CN(c2nc(Nc3cn(C)nc3OC)c3ncn(C)c3n2)C[C@H]1F (EGFR WT (amino acids 669-1011) (Homo sapiens, UniProt P00533))
6.30 to 7.30

----------
Catalogue of IC50 readings, one per entry.
- assayed-system: KRAS G12C (Homo sapiens, UniProt P01116, G12C)
- Sequence (P01116 2-169 isoform P01116-2 G12C): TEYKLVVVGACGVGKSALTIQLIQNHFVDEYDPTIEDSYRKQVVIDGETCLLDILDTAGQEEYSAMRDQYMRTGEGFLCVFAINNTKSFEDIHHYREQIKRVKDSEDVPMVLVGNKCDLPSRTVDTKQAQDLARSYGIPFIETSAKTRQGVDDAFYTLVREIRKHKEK
- measurement-description: KRAS G12C nucleotide exchange assay (SOS1-mediated, HTRF)
- Format: biochemical
- Design: GST-tagged KRAS G12C (amino acids 2-169)
- experimental-context: 1 hr pre-incubation

Examples from the recorded data:
Find the measured IC50 of C=C(COc1c(Cl)cccc1NC(=O)NCc1ccc2c(c1)CN(C1CCC(=O)NC1=O)C2=O)C(=O)N1CCN(c2nc(OC[C@@H]3CCCN3C)nc3c2CCN(c2cccc4cccc(Cl)c24)C3)C[C@@H]1CC#N (some centres unmarked) [Compound I-86] and report it.
< 100 nM

Find the measured IC50 of C=C(COc1cc(Cl)cc(NC(=O)NCc2ccc3c(c2)CN(C2CCC(=O)NC2=O)C3=O)c1F)C(=O)N1CCN(c2nc(OC[C@@H]3CCCN3C)nc3c2CCN(c2cccc4cccc(Cl)c24)C3)C[C@@H]1CC#N (some centres unmarked) [Compound I-84] and report it.
> 10000 nM

Find the measured IC50 of C=C(COc1cccc(NC(=O)NCc2ccc3c(c2)CN(C2CCC(=O)NC2=O)C3=O)c1)C(=O)N1CCN(c2nc(OC[C@@H]3CCCN3C)nc3c2CCN(c2cccc4cccc(Cl)c24)C3)C[C@@H]1CC#N (some centres unmarked) [Compound I-49] and report it.
< 100 nM

Find the measured IC50 of C=C(COc1cc(C(F)(F)F)c(Cl)cc1NC(=O)NCc1ccc2c(c1)CN(C1CCC(=O)NC1=O)C2=O)C(=O)N1CCN(c2nc(OC[C@@H]3CCCN3C)nc3c2CCN(c2cccc4cccc(Cl)c24)C3)C[C@@H]1CC#N (some centres unmarked) [Compound I-88] and report it.
< 100 nM

Others:
Find the measured IC50 of C=C(COc1cc(Cl)cc(NC(=O)NCc2ccc3c(c2)CN(C2CCC(=O)NC2=O)C3=O)c1)C(=O)N1CCN(c2ncnc3c(F)c(-c4c(O)cccc4F)c(Cl)cc23)CC1 (centres unmarked) [Compound I-43] and report it.
> 10000 nM
